study_target: T1, GST-ERBIN PDZ domain 1 (Homo sapiens (Human)), Q96RT1
T1 chain: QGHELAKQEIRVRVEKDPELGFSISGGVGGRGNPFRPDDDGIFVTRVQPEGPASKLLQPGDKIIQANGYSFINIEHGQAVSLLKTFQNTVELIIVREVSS
experimental_details: G' assay; also: key of the grades not given here
assay_readout: Classification (A450 class)

1. AGAVRTPLSQVNKVWDQSSV (modifications not checked) [CITRON protein] :: 4
2. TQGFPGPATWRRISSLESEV (modifications not checked) [NMDA Glutamate Receptor 2C (cysteine-free)] :: 4
3. VPGALDYAAFSSALYGESDL (modifications not checked) [a-actinin 2] :: 1
4. QISPGGLEPPSEKHFRETEV (modifications not checked) [TAX] :: 5
5. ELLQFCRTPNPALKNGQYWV (modifications not checked) [CSPG4 (chondroitin sulfae proteoglycan 4, melanoma-associated)] :: 3
6. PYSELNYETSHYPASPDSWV (modifications not checked) [catenin - delta 2] :: 4
